Target: H3 receptors, guinea pig brain (Cavia porcellus, UniProt Q9JI35)
Sequence (Q9JI35 whole entry): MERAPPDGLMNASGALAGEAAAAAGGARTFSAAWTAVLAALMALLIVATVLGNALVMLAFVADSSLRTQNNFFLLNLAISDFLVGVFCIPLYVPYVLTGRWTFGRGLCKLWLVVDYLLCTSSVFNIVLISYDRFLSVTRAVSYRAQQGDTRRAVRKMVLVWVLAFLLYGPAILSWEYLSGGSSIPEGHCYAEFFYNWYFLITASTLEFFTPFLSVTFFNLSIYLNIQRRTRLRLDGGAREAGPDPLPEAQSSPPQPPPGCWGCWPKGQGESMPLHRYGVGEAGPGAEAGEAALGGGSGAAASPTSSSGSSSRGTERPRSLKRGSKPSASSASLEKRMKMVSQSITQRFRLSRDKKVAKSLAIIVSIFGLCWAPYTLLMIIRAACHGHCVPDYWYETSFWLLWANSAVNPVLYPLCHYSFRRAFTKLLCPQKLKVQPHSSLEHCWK
attribute.measured: pKi
Worth noting: pKi values are minus log10 of concentrations stated in mol/L.

Ask: Which measured pKi value corresponds to Nc1cc(CN2CCC(Oc3ccc(-n4c(-c5ncccc5F)nc5cccnc54)cc3)CC2)ccn1 [Compound 69A] ?
Reply: 7.74

* * *

Biological target: recombinant human H3 receptor, expressed in HEK-293 cells (Homo sapiens)
Sequence (Q9Y5N1 whole entry): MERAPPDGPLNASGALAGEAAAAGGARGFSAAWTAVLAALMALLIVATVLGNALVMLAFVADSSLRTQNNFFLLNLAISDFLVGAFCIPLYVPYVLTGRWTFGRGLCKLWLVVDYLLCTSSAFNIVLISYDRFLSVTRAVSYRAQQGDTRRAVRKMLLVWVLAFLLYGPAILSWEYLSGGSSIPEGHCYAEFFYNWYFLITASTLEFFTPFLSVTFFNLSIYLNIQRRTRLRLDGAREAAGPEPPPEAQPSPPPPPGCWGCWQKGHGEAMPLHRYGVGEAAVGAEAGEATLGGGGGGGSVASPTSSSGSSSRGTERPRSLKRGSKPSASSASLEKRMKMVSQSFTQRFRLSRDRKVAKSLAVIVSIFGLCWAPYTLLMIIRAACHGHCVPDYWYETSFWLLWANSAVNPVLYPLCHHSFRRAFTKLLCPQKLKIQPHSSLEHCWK
Experiment: H3-receptor binding assay, recombinant human receptor
Settings: recombinant human receptor in HEK-293 membranes; 3 nM [3H]R-α-methyl histamine or [3H]Nα-methyl histamine, 30° C., 30 min
attribute.measured: Ki (nM)
Numbers only here, please. The scale is nM.

Ask: Form entry - test system: recombinant human H3 receptor, expressed in HEK-293 cells (Homo sapiens); read-out: Ki; compound: Nc1cc(CN2CCC(Oc3ccc(-n4c(-c5ncccc5F)nc5cccnc54)cc3)CC2)ccn1 [Compound 69A]
Reply: 0.6
